biological target: Histamine H4 receptor (Homo sapiens); experiment: Agonist activity at human H4R expressed on HEK293T cells assessed as inhibition of forskolin-induced CRE-driven luciferase activity co-incubated with forskolin for 6 hrs and measured after 30 mins by CRE-luciferase reporter gene assay
Sequence (Q9H3N8 whole entry): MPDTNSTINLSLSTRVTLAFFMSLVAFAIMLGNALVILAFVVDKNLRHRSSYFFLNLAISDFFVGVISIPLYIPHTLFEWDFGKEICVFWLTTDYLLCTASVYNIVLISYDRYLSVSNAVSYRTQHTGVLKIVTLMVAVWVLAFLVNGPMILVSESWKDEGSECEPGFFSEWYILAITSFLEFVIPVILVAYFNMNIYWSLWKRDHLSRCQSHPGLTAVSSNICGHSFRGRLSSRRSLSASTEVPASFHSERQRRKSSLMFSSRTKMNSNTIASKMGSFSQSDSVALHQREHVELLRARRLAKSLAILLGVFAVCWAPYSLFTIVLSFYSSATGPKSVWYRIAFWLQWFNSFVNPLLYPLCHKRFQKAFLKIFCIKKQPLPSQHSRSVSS
reported_endpoint: EC50 (nM)

mol=CCCNC1CN(c2ccnc(N)n2)C1.O.O=C(O)/C=C/C(=O)O reported_endpoint=EC50 unit_text=nM measured_result=3.16

====

biological target: Histamine H3 receptor (Homo sapiens, UniProt Q9Y5N1); assay: Intrinsic activity at human H3R expressed on HEK293T cells assessed as activation of forskolin-induced CRE-driven luciferase activity co-incubated with forskolin for 6 hrs and measured after 30 mins by CRE-luciferase reporter gene assay relative to histamine; format: functional
Sequence (Q9Y5N1 whole entry): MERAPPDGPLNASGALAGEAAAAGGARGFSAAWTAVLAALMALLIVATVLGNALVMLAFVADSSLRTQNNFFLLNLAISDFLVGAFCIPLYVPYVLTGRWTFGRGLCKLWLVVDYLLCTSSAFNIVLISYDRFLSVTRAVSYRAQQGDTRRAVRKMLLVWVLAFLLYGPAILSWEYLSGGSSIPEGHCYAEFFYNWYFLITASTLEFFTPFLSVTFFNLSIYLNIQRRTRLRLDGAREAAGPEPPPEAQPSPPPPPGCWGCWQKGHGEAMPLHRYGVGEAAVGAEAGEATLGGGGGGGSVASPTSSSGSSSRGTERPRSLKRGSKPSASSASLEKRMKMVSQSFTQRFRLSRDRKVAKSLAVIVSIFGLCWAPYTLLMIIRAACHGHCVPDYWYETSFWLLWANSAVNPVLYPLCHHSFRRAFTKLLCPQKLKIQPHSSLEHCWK
Labelling: Intrinsic activity reported below 1 becomes 1; at or above becomes -1.

mol=CC(C)c1cc(N2CC(N)C2)nc(N)n1 qualitative_label=1
mol=CCc1cc(N2CC(N)C2)nc(N)n1 qualitative_label=1
mol=CCCCNC1CN(c2ccnc(N)n2)C1 qualitative_label=-1
mol=Cc1cc(N2CC(N)C2)nc(N)n1 qualitative_label=1
mol=CCNC1CN(c2cc(C(C)C)nc(N)n2)C1 qualitative_label=1
mol=CNC1CN(c2ccnc(N)n2)C1 qualitative_label=-1

====

assay: Half life in mouse liver microsomes at 50 uM measured up to 45 mins by UPLC/MS analysis; format: ADME, Microsome
reported_endpoint: half-life at 50 µM (h)

mol=CCCNC1CN(c2ccnc(N)n2)C1.O.O=C(O)/C=C/C(=O)O measured_result=2.18

====

target: Histamine H3 receptor (Homo sapiens); experiment: Displacement of [3H]NAMH from human H3R expressed in HEK293T cells incubated for 2 hrs by microbeta scintillation counting analysis; assay type: cell-based
Heads up, the class ranges for Ki are low bin: < 40 nM; mid bin: ≥ 40 nM and < 80 nM; high bin: ≥ 80 nM

molecule=CC(C)c1cc(N2CC(N(C)C)C2)nc(N)n1 qualitative_label="high bin"
molecule=CCN(CC)C1CN(c2ccnc(N)n2)C1 qualitative_label="mid bin"
molecule=CCCCNC1CN(c2ccnc(N)n2)C1 qualitative_label="low bin"
molecule=Cc1cc(N2CC(N(C)C)C2)nc(N)n1 qualitative_label="high bin"
molecule=CCc1cc(N2CC(N(C)C)C2)nc(N)n1 qualitative_label="high bin"
molecule=CCNC1CN(c2cc(CC)nc(N)n2)C1 qualitative_label="high bin"
molecule=CC(C)c1cc(N2CC(N)C2)nc(N)n1 qualitative_label="high bin"
molecule=Cc1cc(N2CC(N)C2)nc(N)n1 qualitative_label="mid bin"
molecule=CNC1CN(c2cc(C)nc(N)n2)C1 qualitative_label="low bin"
molecule=CCNC1CN(c2cc(C(C)C)nc(N)n2)C1 qualitative_label="high bin"
molecule="CCC(C)NC1CN(c2ccnc(N)n2)C1 (racemic)" qualitative_label="low bin"
molecule=Nc1nccc(N2CC(N)C2)n1 qualitative_label="low bin"
molecule=CCCNC1CN(c2ccnc(N)n2)C1.O.O=C(O)/C=C/C(=O)O qualitative_label="low bin"
molecule=CNC1CN(c2ccnc(N)n2)C1 qualitative_label="low bin"
molecule=CNC1CN(c2cc(C(C)C)nc(N)n2)C1 qualitative_label="high bin"
molecule=CN(C)C1CN(c2ccnc(N)n2)C1 qualitative_label="mid bin"
molecule=CCc1cc(N2CC(NC)C2)nc(N)n1 qualitative_label="mid bin"
molecule=CCNC1CN(c2ccnc(N)n2)C1 qualitative_label="low bin"

====

test: Intrinsic clearance in mouse liver microsomes at 50 uM measured up to 45 mins by UPLC/MS analysis; type: ADME, Microsome; settings: read-out: CLH
reported_endpoint: CLint scaled at 50 µM

mol=CCCNC1CN(c2ccnc(N)n2)C1.O.O=C(O)/C=C/C(=O)O measured_result="20.7 mL/min/kg"

====

target: Histamine H3 receptor (Mus musculus, UniProt P58406)
Sequence (P58406 whole entry): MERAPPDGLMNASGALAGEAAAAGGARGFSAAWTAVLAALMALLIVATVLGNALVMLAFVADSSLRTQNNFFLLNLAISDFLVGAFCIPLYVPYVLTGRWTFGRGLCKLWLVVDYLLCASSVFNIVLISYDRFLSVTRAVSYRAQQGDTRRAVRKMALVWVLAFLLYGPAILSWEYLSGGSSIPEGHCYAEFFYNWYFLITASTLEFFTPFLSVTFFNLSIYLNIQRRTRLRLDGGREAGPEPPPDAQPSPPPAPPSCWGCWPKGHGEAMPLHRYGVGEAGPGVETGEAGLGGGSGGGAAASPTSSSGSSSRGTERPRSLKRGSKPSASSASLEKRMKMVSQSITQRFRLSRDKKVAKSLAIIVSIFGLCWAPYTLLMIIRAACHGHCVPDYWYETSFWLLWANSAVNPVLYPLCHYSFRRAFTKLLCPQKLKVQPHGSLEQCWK
pKi: −log10 of the molar value.
reported_endpoint: pKi

mol=CCCNC1CN(c2ccnc(N)n2)C1.O.O=C(O)/C=C/C(=O)O measured_result=9.00

====

molecular target: Histamine H3 receptor (Homo sapiens); experiment: Intrinsic activity at human H3R expressed on HEK293T cells assessed as activation of forskolin-induced CRE-driven luciferase activity co-incubated with forskolin for 6 hrs and measured after 30 mins by CRE-luciferase reporter gene assay relative to histamine; assay type: functional
Some compounds, each annotated with its measured Intrinsic activity.
reported_endpoint: Intrinsic activity

compound=CC(C)NC1CN(c2ccnc(N)n2)C1 target_system="Histamine H3 receptor (Homo sapiens)" measured_result=1.2
compound=CCNC1CN(c2cc(CC)nc(N)n2)C1 target_system="Histamine H3 receptor (Homo sapiens)" measured_result=0.9
compound=CCc1cc(N2CC(NC)C2)nc(N)n1 target_system="Histamine H3 receptor (Homo sapiens)" measured_result=0.8
compound=CNC1CN(c2cc(C(C)C)nc(N)n2)C1 target_system="Histamine H3 receptor (Homo sapiens)" measured_result=0.7
compound=CCCNC1CN(c2ccnc(N)n2)C1.O.O=C(O)/C=C/C(=O)O target_system="Histamine H3 receptor (Homo sapiens)" measured_result=1.2
compound="CCC(C)NC1CN(c2ccnc(N)n2)C1 (racemic)" target_system="Histamine H3 receptor (Homo sapiens)" measured_result=1.1
compound=Nc1nccc(N2CC(N)C2)n1 target_system="Histamine H3 receptor (Homo sapiens)" measured_result=1.1

====

Some molecules, each annotated with its measured Intrinsic activity.
target: UniProt Q9Y5N1; assay: Intrinsic activity at human H3R expressed on HEK293T cells assessed as activation of forskolin-induced CRE-driven luciferase activity co-incubated with forskolin for 6 hrs and measured after 30 mins by CRE-luciferase reporter gene assay relative to histamine; format: functional
reported_endpoint: Intrinsic activity

mol=CNC1CN(c2cc(C)nc(N)n2)C1 measured_result=0.8
mol=CCN(CC)C1CN(c2ccnc(N)n2)C1 measured_result=1.2
mol=CN(C)C1CN(c2ccnc(N)n2)C1 measured_result=1
mol=CCc1cc(N2CC(N(C)C)C2)nc(N)n1 measured_result=0.8
mol=Cc1cc(N2CC(N(C)C)C2)nc(N)n1 measured_result=0.9
mol=Nc1nccc(N2CC(N3CCCC3)C2)n1 measured_result=1.3
mol=CC(C)CNC1CN(c2ccnc(N)n2)C1 measured_result=1.1
mol=CC(C)c1cc(N2CC(N(C)C)C2)nc(N)n1 measured_result=0.4

====

molecular target: Histamine H3 receptor (Homo sapiens, UniProt Q9Y5N1); test: Displacement of [3H]-N-alpha-methylhistamine from human histamine H3 receptor expressed in CHO cells incubated for 40 min by liquid scintillation counting analysis; type: cell-based
pKi: −log10 of the molar value.
reported_endpoint: pKi

mol=CCCCC(=O)O[C@H]1C[C@@H]2C[C@H]3[C@](NC)(CN2[C@@H](C)C1)C[C@]1(C(=O)Nc2c(C(=O)[C@H]4OC4(C)C)cccc21)[C@]3(C)C=O measured_result=7.30

====

target: UniProt:P58406; test: Agonist activity at mouse H3R expressed on HEK293T cells assessed as inhibition of forskolin-induced CRE-driven luciferase activity co-incubated with forskolin for 6 hrs and measured after 30 mins by luciferase reporter gene assay; assay type: functional
reported_endpoint: EC50 (pM)

mol=CCCNC1CN(c2ccnc(N)n2)C1.O.O=C(O)/C=C/C(=O)O reported_endpoint=EC50 unit_text=pM measured_result=100

====

molecular target: Histamine H3 receptor (Homo sapiens, UniProt Q9Y5N1); assay: Agonist activity at human H3R expressed on HEK293T cells assessed as inhibition of forskolin-induced CRE-driven luciferase activity co-incubated with forskolin for 6 hrs and measured after 30 mins by CRE-luciferase reporter gene assay; assay type: functional
pEC50: −log10 of the molar value.
Binary call on pEC50: met from 8 upward, not met beneath that.

compound=CC(C)c1cc(N2CC(N(C)C)C2)nc(N)n1 target_system="Histamine H3 receptor (Homo sapiens, UniProt Q9Y5N1)" qualitative_label="not met"
compound=CC(C)NC1CN(c2ccnc(N)n2)C1 target_system="Histamine H3 receptor (Homo sapiens, UniProt Q9Y5N1)" qualitative_label=met
compound=Cc1cc(N2CC(N(C)C)C2)nc(N)n1 target_system="Histamine H3 receptor (Homo sapiens, UniProt Q9Y5N1)" qualitative_label="not met"
compound=CNC1CN(c2ccnc(N)n2)C1 target_system="Histamine H3 receptor (Homo sapiens, UniProt Q9Y5N1)" qualitative_label=met
compound=CCc1cc(N2CC(N(C)C)C2)nc(N)n1 target_system="Histamine H3 receptor (Homo sapiens, UniProt Q9Y5N1)" qualitative_label="not met"
compound="CCC(C)NC1CN(c2ccnc(N)n2)C1 (racemic)" target_system="Histamine H3 receptor (Homo sapiens, UniProt Q9Y5N1)" qualitative_label=met
compound=CC(C)c1cc(N2CC(N)C2)nc(N)n1 target_system="Histamine H3 receptor (Homo sapiens, UniProt Q9Y5N1)" qualitative_label="not met"
compound=CCCNC1CN(c2ccnc(N)n2)C1.O.O=C(O)/C=C/C(=O)O target_system="Histamine H3 receptor (Homo sapiens, UniProt Q9Y5N1)" qualitative_label=met
compound=CN(C)C1CN(c2ccnc(N)n2)C1 target_system="Histamine H3 receptor (Homo sapiens, UniProt Q9Y5N1)" qualitative_label=met
compound=CCc1cc(N2CC(NC)C2)nc(N)n1 target_system="Histamine H3 receptor (Homo sapiens, UniProt Q9Y5N1)" qualitative_label="not met"
compound=Nc1nccc(N2CC(N)C2)n1 target_system="Histamine H3 receptor (Homo sapiens, UniProt Q9Y5N1)" qualitative_label=met
compound=CCc1cc(N2CC(N)C2)nc(N)n1 target_system="Histamine H3 receptor (Homo sapiens, UniProt Q9Y5N1)" qualitative_label="not met"
compound=CC(C)CNC1CN(c2ccnc(N)n2)C1 target_system="Histamine H3 receptor (Homo sapiens, UniProt Q9Y5N1)" qualitative_label=met
compound=CCCCNC1CN(c2ccnc(N)n2)C1 target_system="Histamine H3 receptor (Homo sapiens, UniProt Q9Y5N1)" qualitative_label=met
compound=CCNC1CN(c2cc(CC)nc(N)n2)C1 target_system="Histamine H3 receptor (Homo sapiens, UniProt Q9Y5N1)" qualitative_label="not met"
compound=CCNC1CN(c2cc(C(C)C)nc(N)n2)C1 target_system="Histamine H3 receptor (Homo sapiens, UniProt Q9Y5N1)" qualitative_label="not met"
compound=CCNC1CN(c2ccnc(N)n2)C1 target_system="Histamine H3 receptor (Homo sapiens, UniProt Q9Y5N1)" qualitative_label=met
